tested on: c-Src; test: phosphorylation enrichment, bacterial display (enrichment ratio); higher = better substrate or ligand; peptides without Tyr show the background
phosphorylation enrichment listing for selected sequences.

{"SEQUENCE_CONTENT": "IATTIYSGDKI [UGGT2_Y823_A821T]", "TARGET_ENTITY": "c-Src", "phosphorylation enrichment": 0.748}
{"SEQUENCE_CONTENT": "RPSRWYQFRVA [ANOS1_Y259]", "TARGET_ENTITY": "c-Src", "phosphorylation enrichment": 0.756}
{"SEQUENCE_CONTENT": "PHQTIYSALMI [FGF23_Y70]", "TARGET_ENTITY": "c-Src", "phosphorylation enrichment": 10.4}
{"SEQUENCE_CONTENT": "SRPTQYSSFSC [SPEM2_Y104]", "TARGET_ENTITY": "c-Src", "phosphorylation enrichment": 0.7}
{"SEQUENCE_CONTENT": "NKYTTYLPWLP [C9orf24_Y126_R129W]", "TARGET_ENTITY": "c-Src", "phosphorylation enrichment": 4.72}
{"SEQUENCE_CONTENT": "RDVEQYVNNVN [PCDH19_Y1097_L1094V]", "TARGET_ENTITY": "c-Src", "phosphorylation enrichment": 0.398}
{"SEQUENCE_CONTENT": "SFHCSYSEIKD [DCLRE1C_Y322_S320C]", "TARGET_ENTITY": "c-Src", "phosphorylation enrichment": 0.647}
{"SEQUENCE_CONTENT": "QNTADYFDLFG [PTPN11_Y62_G60A_YF]", "TARGET_ENTITY": "c-Src", "phosphorylation enrichment": 0.693}
{"SEQUENCE_CONTENT": "EQKKYYNAMKN [SCN5A_Y1495_K1500N]", "TARGET_ENTITY": "c-Src", "phosphorylation enrichment": 0.359}
{"SEQUENCE_CONTENT": "ARMTNYGLPRY [TSPAN12_Y138]", "TARGET_ENTITY": "c-Src", "phosphorylation enrichment": 0.534}
{"SEQUENCE_CONTENT": "SSDKVYAHQMD [MLH1_Y379_V384D]", "TARGET_ENTITY": "c-Src", "phosphorylation enrichment": 0.491}
{"SEQUENCE_CONTENT": "GRPMDYQVSIT [OTOF_Y254]", "TARGET_ENTITY": "c-Src", "phosphorylation enrichment": 0.449}
{"SEQUENCE_CONTENT": "FQEPVYSVAFS [TBL1X_Y509_H504Y_YF]", "TARGET_ENTITY": "c-Src", "phosphorylation enrichment": 7.54}
{"SEQUENCE_CONTENT": "NFADPYRQLQF [CTNND2_Y503_YF]", "TARGET_ENTITY": "c-Src", "phosphorylation enrichment": 0.563}
{"SEQUENCE_CONTENT": "KGEDFYCVTRH [FHL1_Y149_C153R]", "TARGET_ENTITY": "c-Src", "phosphorylation enrichment": 0.794}
{"SEQUENCE_CONTENT": "DYDHSYYFIAT [ESD_Y262_G257D]", "TARGET_ENTITY": "c-Src", "phosphorylation enrichment": 1.81}
{"SEQUENCE_CONTENT": "GQKVAYGGTGD [ALDH3A1_Y305]", "TARGET_ENTITY": "c-Src", "phosphorylation enrichment": 0.371}
{"SEQUENCE_CONTENT": "SNKLYYQLEQE [PDPR_Y110]", "TARGET_ENTITY": "c-Src", "phosphorylation enrichment": 2.36}
{"SEQUENCE_CONTENT": "PPAPRYHHSAV [LZTR1_Y119]", "TARGET_ENTITY": "c-Src", "phosphorylation enrichment": 0.384}
{"SEQUENCE_CONTENT": "EGTATYAAAVL [JUP_Y644]", "TARGET_ENTITY": "c-Src", "phosphorylation enrichment": 0.897}

----------
target: SHP2-C SH2; assay: SH2 binding enrichment of the phosphorylated peptide, bacterial display (enrichment ratio); higher = better substrate or ligand; peptides without Tyr show the background;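 further: peptide library displayed on the E. coli surface as eCPX fusions, selected cells deep-sequenced, score is each peptide's frequency after selection divided by its frequency in the input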
MEASUREMENT_LABEL: SH2 binding enrichment

{"SEQUENCE_CONTENT": "DVRQEYSGMIL [PLXND1_Y616_P617S]", "OBSERVED_RESULT": 0.39}
{"SEQUENCE_CONTENT": "FQEPVYSVAFS [TBL1X_Y509_H504Y_YF]", "OBSERVED_RESULT": 0.926}
{"SEQUENCE_CONTENT": "PPAPRYHHSAV [LZTR1_Y119]", "OBSERVED_RESULT": 1.1}
{"SEQUENCE_CONTENT": "RVKPIYFHTQG [AR_Y916_K911R]", "OBSERVED_RESULT": 1.67}
{"SEQUENCE_CONTENT": "CTHDLYMIMRE [FGFR3_Y724]", "OBSERVED_RESULT": 0.708}
{"SEQUENCE_CONTENT": "ALAHKYHGGGG [HBB_Y146]", "OBSERVED_RESULT": 0.63}
{"SEQUENCE_CONTENT": "FQLPFYNTVPS [BMPR1A_Y458_M460T_YF]", "OBSERVED_RESULT": 0.816}
{"SEQUENCE_CONTENT": "IFGEEYEEQPR [ZMYM2_Y1033_V1028I]", "OBSERVED_RESULT": 0.77}
{"SEQUENCE_CONTENT": "QKINKYLTVPA [SLC9A1_Y683_N682K]", "OBSERVED_RESULT": 0.813}
{"SEQUENCE_CONTENT": "QMVGKYASSYM [AVPR2_Y124_M123K]", "OBSERVED_RESULT": 1.21}
{"SEQUENCE_CONTENT": "RLLVVYPWTQR [HBB_Y36]", "OBSERVED_RESULT": 2.05}
{"SEQUENCE_CONTENT": "FAASSYSFSDL [EMD_Y59_S54F]", "OBSERVED_RESULT": 0.631}
{"SEQUENCE_CONTENT": "GPKFGYDEIDN [ACOX1_Y232]", "OBSERVED_RESULT": 0.658}
{"SEQUENCE_CONTENT": "ETLLFYGFRRS [POR_Y564_C566Y_YF]", "OBSERVED_RESULT": 0.458}
{"SEQUENCE_CONTENT": "RRNVYYYSYLL [PTEN_Y177_Y174N]", "OBSERVED_RESULT": 0.641}
{"SEQUENCE_CONTENT": "RFLERYIFNRE [HLA-DPB1_Y57_YF]", "OBSERVED_RESULT": 1.09}
{"SEQUENCE_CONTENT": "VLDSHYPEDEV [C1QBP_Y188_C186S]", "OBSERVED_RESULT": 0.697}
{"SEQUENCE_CONTENT": "PTTKTYFPHFY [HBA1_Y43_D48Y]", "OBSERVED_RESULT": 1.25}
{"SEQUENCE_CONTENT": "WNRDKYAATTT [TRIM39_Y439_G436R]", "OBSERVED_RESULT": 0.798}
{"SEQUENCE_CONTENT": "RTCSSYTIEKI [PARP15_Y520_A521T]", "OBSERVED_RESULT": 0.739}
{"SEQUENCE_CONTENT": "VDTAMYATMQR [TPO_Y55]", "OBSERVED_RESULT": 0.764}
{"SEQUENCE_CONTENT": "KEDSVYGSQSV [NFKB2_Y868_A867V]", "OBSERVED_RESULT": 0.554}

----------
target: MERTK (UniProt Q12866); assay: phosphorylation enrichment, bacterial display (enrichment ratio); higher = better substrate or ligand; peptides without Tyr show the background
Sequence (Q12866 whole entry, looked up): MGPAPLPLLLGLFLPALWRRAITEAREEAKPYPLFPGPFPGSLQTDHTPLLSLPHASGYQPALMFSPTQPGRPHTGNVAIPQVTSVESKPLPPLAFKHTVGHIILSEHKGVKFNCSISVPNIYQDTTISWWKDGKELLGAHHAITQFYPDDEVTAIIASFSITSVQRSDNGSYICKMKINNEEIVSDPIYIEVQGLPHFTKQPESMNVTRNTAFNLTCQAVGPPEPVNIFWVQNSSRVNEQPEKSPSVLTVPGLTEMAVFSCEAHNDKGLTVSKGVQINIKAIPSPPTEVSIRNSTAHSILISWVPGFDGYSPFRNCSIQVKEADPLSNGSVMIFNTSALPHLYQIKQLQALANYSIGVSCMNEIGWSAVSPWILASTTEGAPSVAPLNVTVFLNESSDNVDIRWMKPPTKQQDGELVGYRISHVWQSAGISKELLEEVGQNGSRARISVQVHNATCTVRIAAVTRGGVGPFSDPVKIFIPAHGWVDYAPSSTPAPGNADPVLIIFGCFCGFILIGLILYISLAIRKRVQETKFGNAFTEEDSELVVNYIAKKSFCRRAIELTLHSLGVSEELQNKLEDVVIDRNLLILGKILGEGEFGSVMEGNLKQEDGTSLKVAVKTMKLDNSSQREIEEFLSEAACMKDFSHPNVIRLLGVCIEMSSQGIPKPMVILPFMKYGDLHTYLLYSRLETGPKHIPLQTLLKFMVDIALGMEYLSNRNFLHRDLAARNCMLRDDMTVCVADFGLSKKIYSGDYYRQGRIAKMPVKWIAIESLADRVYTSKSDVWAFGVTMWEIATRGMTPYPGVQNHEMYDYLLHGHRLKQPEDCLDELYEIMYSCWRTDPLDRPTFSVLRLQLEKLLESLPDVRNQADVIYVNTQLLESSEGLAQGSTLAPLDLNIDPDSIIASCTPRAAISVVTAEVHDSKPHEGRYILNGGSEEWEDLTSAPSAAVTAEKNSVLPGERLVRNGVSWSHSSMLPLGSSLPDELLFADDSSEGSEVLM
Respond with Satisfied for phosphorylation enrichment values of 0.5 and above, Not satisfied for values below.

{"SEQUENCE_CONTENT": "NTGLDYIKFTW [HRH1_Y386]", "CLASS_ASSIGNMENT": "Satisfied"}
{"SEQUENCE_CONTENT": "MPPHICAITDT [MYH9_Y151_Y151C]", "CLASS_ASSIGNMENT": "Not satisfied"}
{"SEQUENCE_CONTENT": "FSAGTYPRMEE [SYCN_Y108_L111M]", "CLASS_ASSIGNMENT": "Not satisfied"}

----------
test system: c-Abl (mouse); test: phosphorylation enrichment, bacterial display (enrichment ratio); higher = better substrate or ligand; peptides without Tyr show the background
Respond with rule met for phosphorylation enrichment values of 0.7 and above, rule not met for values below.

{"SEQUENCE_CONTENT": "RGDCTYAPLLG [AR_Y269_M268T]", "CLASS_ASSIGNMENT": "rule met"}
{"SEQUENCE_CONTENT": "KPSLKYVTYGN [GALNTL5_Y404_G401S]", "CLASS_ASSIGNMENT": "rule not met"}
{"SEQUENCE_CONTENT": "QVMDGYPIPIG [MMP14_Y353_M355I]", "CLASS_ASSIGNMENT": "rule not met"}
{"SEQUENCE_CONTENT": "VSSPKYGSNDE [TMCC2_Y473_D476N]", "CLASS_ASSIGNMENT": "rule met"}
